- Measured on: human GABAA α2β2γ1 receptor (Homo sapiens (Human), UniProt P47869+Q8N1C3)
- Procedure details: Radioligand binding assay, competition for [3H]RO7239181, γ1-containing GABAA subtypes
- Cond: Table 2; [3H]RO7239181 displacement; read-out: Ki h-GABAA α2β2γ1
Listed next: entries and their corresponding pKi.
Quick note: pKi means taking -log10 of the concentration in moles per liter.

C[C@@H]1N=C(c2c(F)cccc2F)c2c(cnc(C(F)(F)F)c2Cl)-n2nc(C(=O)N[C@H]3C[C@@H](O)C3)nc21 [Example 23]    6.99

In the following, a different molecule is considered.
For this molecule ( Cc1nc2n(n1)-c1cnc(C(F)(F)F)c(Cl)c1C(c1c(F)cccc1F)=N[C@H]2C [Example 5] ), measured pKi is 7.40

---

Listed next: entries and their corresponding pKi.
- Measured on: human GABAA α2β2γ1 receptor (Homo sapiens (Human), UniProt P47869+Q8N1C3)
- Procedure details: Radioligand binding assay, competition for [3H]RO7239181, γ1-containing GABAA subtypes
- Cond: Ki h-GABAA α2β2γ1, Table 3; reference compounds comparison
Quick note: pKi means taking -log10 of the concentration in moles per liter.

Examples with answers:
C[C@@H]1N=C(c2c(F)cccc2F)c2c(cnc(C(F)(F)F)c2Cl)-n2nc(C(=O)N3CC(C)(O)C3)nc21    7.84
Cc1nnc2n1-c1cnc(C(F)(F)F)c(Cl)c1C(c1c(F)cccc1F)=N[C@H]2C    7.19

// returns pKi for CN1C(=O)CN=C(c2ccccc2F)c2ccncc21 [RE-A, reference compound] with human GABAA α2β2γ1 receptor (Homo sapiens (Human), UniProt P47869+Q8N1C3); value = 4.99

---

- Measured on: human GABAA α1β2γ1 receptor (Homo sapiens (Human), UniProt P14867+Q8N1C3)
- Procedure details: Radioligand binding assay, competition for [3H]RO7239181, γ1-containing GABAA subtypes
- Cond: Table 1; [3H]RO7239181 displacement, membranes from HEK293F cells, mean of two determinations
Readout: pKi
Quick note: pKi means taking -log10 of the concentration in moles per liter.

Examples with answers:
C[C@H](O)CNC(=O)c1nc2n(n1)-c1cnc(C(F)(F)F)c(Cl)c1C(c1c(F)cccc1F)=N[C@H]2C [Example 14]    7.04
C[C@@H]1N=C(c2c(F)cccc2F)c2c(cnc(C(F)(F)F)c2Cl)-n2nc(C(=O)NC[C@@H](C)O)nc21 [Example 16]    6.80
C[C@@H]1N=C(c2c(F)cccc2F)c2c(cnc(C(F)(F)F)c2Cl)-n2cc(C(=O)NCCO)nc21 [Example 19]    7.31

For this molecule ( C[C@@H]1N=C(c2c(F)cccc2F)c2c(cnc(C(F)(F)F)c2Cl)-n2nc(C(=O)N3CC(C)(O)C3)nc21 [Example 10] ), measured pKi is 7.09

For this molecule ( C[C@@H]1N=C(c2c(F)cccc2F)c2c(cnc(C(F)(F)F)c2Cl)-n2nc(C(=O)N3CCS(=O)(=O)CC3)nc21 [Example 11] ), measured pKi is 7.34

For this molecule ( C[C@@H]1N=C(c2c(F)cccc2F)c2c(cnc(C(F)(F)F)c2Cl)-n2nc(C(=O)NCCO)nc21 [Example 15] ), measured pKi is 6.94
